Tested on: HCC 2998
Experiment: NCI tumour cell line growth inhibition, 48 h
Active and inactive are the calls of the source. Rule as the data show it: active = GI50 up to about 1.1 µM and inactive = higher.
RECORDED_METRIC: GI50

INSERT INTO results (molecule, endpoint_value) VALUES
  ('COC(=O)C(=O)C(C(=O)C(=O)Nc1cccc([N+](=O)[O-])c1)c1nc2ccc(Cl)cc2nc1O (stereo not given)', '> 100 µM (inactive)'),
  ('C=C(CO)C(=O)OC1CC(=C)C2CC(O)C(C)C2C2OC(=O)C(=C)C12 (stereo not given)', '21.7 µM (inactive)'),
  ('CC(C)(C)[Si](C)(C)OCC1OC(n2ccc(=O)[nH]c2=O)C(O[Si](C)(C)C(C)(C)C)/C1=C/C#N (stereo not given)', '5.48 µM (inactive)'),
  ('N#C/C(=C\c1cccc(Br)c1)c1nc2ccccc2c(=O)[nH]1', '> 100 µM (inactive)'),
  ('CCCNC(=S)N/N=C(\C)c1ccc(S(=O)(=O)N(C)c2ccccc2)cc1', '> 100 µM (inactive)'),
  ('Cc1cc2c(cc1Cl)Sc1n[nH]c(=O)n1S2(=O)=O', '> 100 µM (inactive)'),
  ('Fc1ccc(C(OCCN2CCC3CCC(C2)N3C/C=C/c2cccs2)c2ccc(F)cc2)cc1 (stereo not given)', '3.21 µM (inactive)'),
  ('c1ccc2[nH]c(CNc3ccc(C4C[Se]N=N4)cc3)nc2c1 (stereo not given)', '> 100 µM (inactive)'),
  ('N=C(N)N/N=C/c1cnn(C(=N)N)c1', '> 100 µM (inactive)'),
  ('COC1CC(n2ccc(=O)[nH]c2=O)OC1CO (stereo not given)', '> 100 µM (inactive)'),
  ('c1ccc(CCN2CCN=C2Cc2ccccc2)cc1', '21.3 µM (inactive)'),
  ('CCOC(=O)Cn1c(=O)c2nc(SC)sc2n(-c2ccccc2)c1=O', '> 100 µM (inactive)'),
  ('CCCCCCCC(=O)OC(CBr)COC(=O)C(C)(C)C (stereo not given)', '> 100 µM (inactive)'),
  ('CC(=O)O[C@H]1C(=O)[C@@]2(C)[C@H]([C@H](OC(=O)c3ccncc3)[C@]3(O)C[C@H](OC(=O)[C@H](O)[C@@H](NC(=O)c4ccccc4)c4ccccc4)C(C)=C1C3(C)C)[C@]1(OC(C)=O)CO[C@@H]1C[C@@H]2O', '3.24 µM (inactive)'),
  ('CCOc1ccc(/C=N/[N+](C)(C)C)cc1OCC', '> 10 µM (inactive)'),
  ('CCC1=CCN(c2cc(C)ccn2)OC1c1ccccc1 (stereo not given)', '33.3 µM (inactive)'),
  ('Nc1nc(Cl)cc(NC23CC4CC(CC(C4)C2)C3)n1', '> 100 µM (inactive)'),
  ('COc1ccc(-c2cc(O)c3cc4c(cc3n2)OCO4)cc1', '> 100 µM (inactive)'),
  ('C/C=C1/CN2CCC34C5=CC(=O)C(c6cc7c(cc6OC)N(C)C6=C(C(=O)OC)CC8(CC)CCCN9CCC67C98)=CC5=NC23CCC1C4C(=O)OC (stereo not given)', '15.7 µM (inactive)'),
  ('FC(F)(F)c1cnc(N/N=C(/c2ccccc2)c2ccccn2)c(Cl)c1', '5.92 µM (inactive)');

====

Tested on: DU-145
Assay: NCI tumour cell line growth inhibition, 48 h
Active and inactive are the calls of the source. No stated cut-off is given here; in the data, active = GI50 up to about 1.1 µM and inactive = higher.
Outcomes: active, inactive

INSERT INTO results (molecule, system, classification) VALUES
  ('Clc1cc2ncn(C3CCCCO3)c2cc1Cl (stereo unspecified)', 'DU-145', 'inactive'),
  ('Cc1cn(C2CC(N=[N+]=[N-])C(CO)O2)c(=O)n(CCCCO)c1=O (stereo unspecified)', 'DU-145', 'inactive'),
  ('Cc1ccc(/C=C/C(=N/NC(=O)N/N=C(/C=C/c2ccc(C)cc2)C(C)(C)CN2CCCCC2)C(C)(C)CN2CCCCC2)cc1', 'DU-145', 'inactive'),
  ('COc1cc2c3c4c1OCc1c5c(cc(c1-4)CC3[N+](C)(C)CC2)OCO5 (stereo unspecified)', 'DU-145', 'inactive'),
  ('O=C(Cc1ccccc1)NN1C(=O)/C(=C\c2cccc([N+](=O)[O-])c2)S/C1=N\c1ccccc1', 'DU-145', 'inactive'),
  ('COC(=O)[C@@]12CCCC(=O)[C@@H]1[C@H]1CCCC[C@H]12', 'DU-145', 'inactive'),
  ('COc1ccc(/C=C/C(=O)/C=C/c2ccc(OC)cc2OC)c(OC)c1', 'DU-145', 'inactive'),
  ('O=C(NCc1ccccc1)c1c(O)nc2ccccc2c1O', 'DU-145', 'inactive'),
  ('O=c1c2ccccc2nc2sc(/N=C/C=C/c3ccccc3)nn12', 'DU-145', 'inactive'),
  ('C/C=C1/CN2CCC34C5=CC(=O)C(c6cc7c(cc6OC)N(C)C6=C(C(=O)OC)CC8(CC)CCCN9CCC67C98)=CC5=NC23CCC1C4C(=O)OC (stereo unspecified)', 'DU-145', 'inactive'),
  ('Cc1ccc(-c2c(C#N)c(N)[nH]c(=S)c2C#N)cc1', 'DU-145', 'inactive'),
  ('COc1ccc(-c2nc(N3CCCC3)no2)cc1', 'DU-145', 'inactive'),
  ('N#C/C(=C\c1cccc(Br)c1)c1nc2ccccc2c(=O)[nH]1', 'DU-145', 'inactive'),
  ('COc1ccc(C2=C(N)c3cc(OC)ccc3C2=O)cc1', 'DU-145', 'inactive'),
  ('O=C(CSc1nc2ccc(I)cc2c(=O)n1Cc1ccccc1)NN1C(=O)CSC1c1ccccc1 (stereo unspecified)', 'DU-145', 'inactive'),
  ('CN(C)CCCNC(=O)c1c(O)c2ccccc2[nH]c1=O', 'DU-145', 'inactive'),
  ('O=[N+]([O-])c1cccc2nc3ccccc3c(NCCN(CCO)CCO)c12', 'DU-145', 'active'),
  ('c1csc(-c2ccc(-c3cccc4nsnc34)s2)c1', 'DU-145', 'inactive'),
  ('CC[C@@]1(O)C(=O)OCc2c1cc1n(c2=O)Cc2cc3cc(OC)ccc3nc2-1', 'DU-145', 'active'),
  ('O=C1N2CCC[C@H]2CS1(=O)=O', 'DU-145', 'inactive'),
  ('COc1ccccc1-n1nnc2c(N)nc(N)nc21', 'DU-145', 'inactive');
